Provenance of the data: ChEMBL document CHEMBL3988442

tested on: Wolbachia pipientis; assay: Anti-Wolbachia Cell-Based Screen; assay type: functional; set-up: scale not given: in the data most compounds retested in dose-response had high values; conditions: 5 µM
Out of some 48,000 compounds screened, about 13,000 (27%) showed an effect of 50% or more. This is one part of the list.
recorded.metric: Percent Effect
Quote the value and follow it with the unit of measurement.

1. O=C(Nc1ccc(F)cc1)N1C[C@H]2C[C@H](C(=O)N3CCCC3)[C@@H](C1)O2 | 125.2%

# next compound below
Read off the recorded Percent Effect for "CC(C)c1noc(CNc2cccc(-c3nnnn3C)c2)n1" -7.266%

###

system: Wolbachia pipientis; experiment: Anti-Wolbachia Cell-Based Screen; type: functional; set-up: scale not given: in the data most compounds retested in dose-response had high values; settings: 5 µM
The whole screen tested about 48,000 compounds, of which about 13,000 (27%) showed an effect of 50% or more. The list shows a part of the results.
recorded.metric: Percent Effect (%)
Report only the number, with the unit % understood.

Worked set:
1. Cc1ccc(-c2nc(CN3CCc4nn(C)c(=O)cc4C3)co2)cc1 | -7.957
2. CC(C)C(C)N(C)Cc1nnc(-c2ccco2)o1 (stereo not drawn) | -1.497
3. O=C(O)c1nnn(Cc2cccc(C(F)(F)F)c2)c1-c1cccnc1 | 14.53
4. CS(=O)(=O)NC1CCN(Cc2coc(-c3ccccc3)n2)CC1 | -0.3699
5. O=C(O)C(F)(F)F.O=C([C@@H]1COC[C@H]2CN(C3CCOCC3)C[C@H]21)N1CCCO1 | 1.407

Read off the recorded Percent Effect for "Cc1n[nH]c(C)c1-c1cc(-c2cccc(O)c2)nc(N)c1C#N" 88.86

Read off the recorded Percent Effect for CCOCC1CN(C(=O)c2cccs2)Cc2nn(C)cc21 (stereo not drawn) -4.192

Read off the recorded Percent Effect for CNC(=O)C1Cn2ccnc2C2(CCN(C(=O)CC3CCCC3)CC2)O1.O=C(O)C(F)(F)F (stereo not drawn) -0.06928
